The reported numbers originate from the supplement of paper PMC9112550.

test system: Escherichia coli TOP10; assay: shrunken log2 fold change of peptide-encoding DNA abundance (4.5 h post-induction vs induction); higher = less antimicrobial activity (less host growth inhibition); settings: time post-induction: 4.5 h; library: site-saturation at positions 5, 18, 19, 20;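 note: peptides expressed intracellularly from a pBAD plasmid library in pooled LB shake-flask culture, induced with 0.3% L-arabinose, DNA abundance read by NGS, three biological replicates, DESeq2 with apeglm shrinkage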
Label Fulfilled when shrunken log2 fold change >= 0.2; otherwise Not fulfilled.

Check out these entries, answers already filled in.
Seq String	Class Name
RRIRFRPPRLPRPRPRPGGDPRP	Fulfilled
RRIRHRPPRLPRPRPRPNKHPRP	Not fulfilled
RRIRVRPPRLPRPRPRPGADPRP	Not fulfilled
RRIRMRPPRLPRPRPRPNHDPRP	Not fulfilled
RRIRTRPPRLPRPRPRPDTQPRP	Not fulfilled
RRIRWRPPRLPRPRPRPSAEPRP	Fulfilled
RRIRHRPPRLPRPRPRPLTWPRP	Not fulfilled
RRIRERPPRLPRPRPRPHRHPRP	Not fulfilled
RRIRSRPPRLPRPRPRPACVPRP	Fulfilled
RRIRHRPPRLPRPRPRPLDVPRP	Not fulfilled

Ask: Form field: shrunken log2 fold change at least 0.2? Entry: RRIRLRPPRLPRPRPRPYDQPRP
Result: Not fulfilled

Ask: Item RRIRPRPPRLPRPRPRPPLAPRP with shrunken log2 fold change of 0.2 or above?
Result: Fulfilled

Ask: Tell me whether shrunken log2 fold change is at least 0.2 here: RRIRSRPPRLPRPRPRPKGFPRP
Result: Not fulfilled

Ask: Item RRIRARPPRLPRPRPRPGSDPRP with shrunken log2 fold change of 0.2 or above?
Result: Fulfilled

Ask: # bool: shrunken log2 fold change of RRIRTRPPRLPRPRPRPPTKPRP >= 0.2
Result: Fulfilled
